Tested on: Wolbachia pipientis
Experiment: Anti-Wolbachia Cell-Based Screen
Format: functional
Design: scale not given: in the data most compounds retested in dose-response had high values
Conditions: 5 µM
About 13,000 (27%) of roughly 48,000 compounds showed an effect of 50% or more. Some of the results follow.
VALUE TYPE: Percent Effect (%)
Express it in %; write the number only.

*Q* Quick one: Percent Effect for COC(=O)C(C)N1CCCc2cc(OC)ccc2C1 (centres undefined) ?
*A* -9.406

*Q* Fill blank: measured Percent Effect of the compound CCNc1ncc(C(=O)N2CCOC(CCCC(C)C)C2)cn1 (centres undefined) is ____.
*A* 18.06

*Q* Entry under review: Cc1cnn(CCNC(C)c2nnc(-c3ccccc3)o2)c1 (centres undefined) . Reported Percent Effect?
*A* -3.26

*Q* Tell me the measured Percent Effect of CCNc1ncc(C(=O)N2CCC(c3ccccc3C(=O)O)C2)cn1 (centres undefined) , please.
*A* -1.411

*Q* Could you share which Percent Effect value was measured for COCCCC(=O)N(CCC(=O)O)Cc1ccc(F)c(F)c1 ?
*A* 97.51

*Q* Return reported Percent Effect; argument: O=C(N1CCCC1)N1CCN(c2ccc(Cl)nn2)C(=O)C1
*A* 104

*Q* Which Percent Effect reading was recorded for the compound COc1cccc(CN2CCCC3(CCN(C(CO)CO)C3)C2)c1 (centres undefined) ?
*A* -0.6359

*Q* Suppose we examine the compound COc1ccc2c(c1)CCN(CCC(=O)O)CC2 ; what Percent Effect value has been reported?
*A* -10.19

*Q* May I ask what Percent Effect has been recorded for CN(C)CCOc1cccc(CN2CCCC3(C2)CN(C)C(=O)O3)c1 (centres undefined) ?
*A* 103.2

*Q* Param item = O=C1CN(Cc2nnc(-c3ccc(Br)cc3)o2)CCN1 ; retrieve measured Percent Effect.
*A* -13.92

*Q* // Percent Effect lookup, key: Cc1nc(CN2CCCCC2CCc2cccs2)co1 (centres undefined)
*A* 96.55

*Q* Find the recorded Percent Effect belonging to CN1CC2(CCCN(Cc3ccccc3OCC(=O)O)C2)OC1=O (centres undefined) and report it.
*A* 0.6132

*Q* May I ask what Percent Effect has been recorded for O=C(Nc1ccc(F)c(-n2cccc2)c1)NC1(CCO)CCOCC1 ?
*A* 29.93

*Q* Give its Percent Effect value. Item: Cc1cccc2cc(C(=O)N3CCC(F)(F)CC3)n(C)c12
*A* 5.497

*Q* For the compound Cc1ccc(-c2cc(CNCCn3cc(C)cn3)on2)cc1 , what Percent Effect is on record?
*A* -23.87

*Q* Reported Percent Effect for COCCC1CCCCN1Cc1nc(C2CC2)no1 (centres undefined) : what is it?
*A* -11.16

*Q* I'd like to know its Percent Effect. The compound in question is O=C(N1CCOCC1)N1CCN(c2ccnc3ccsc23)CC1
*A* 30.34

*Q* Record request: Percent Effect value, item CCn1c(N)nc2cc(C(=O)NCCc3sccc3C)cnc21
*A* 9.086

*Q* Look up Percent Effect: Cc1cnn(CCNCc2csc(-c3ccc(F)cc3)n2)c1
*A* 0.7899

*Q* I have this compound here, CCNc1ncc(C(=O)N2Cc3nc(C)[nH]c(=O)c3C2)cn1 , and I need its recorded Percent Effect.
*A* 110.8

*Q* For O=C(Cc1ccc2c(c1)OCO2)N1CCN(c2ccccc2Cl)C(=O)C1 , what is its reported Percent Effect?
*A* 2.346

*Q* Quick check: Percent Effect of OC(CN1CCCc2cc(OC(F)F)ccc21)Cn1cccn1 (centres undefined) ?
*A* -16.69

*Q* Suppose we examine the compound Cc1nc2c(c(N(C)C)n1)CCN(C(=O)c1ccc(N)nc1)C2 ; what Percent Effect value has been reported?
*A* 84.83

*Q* What does the record list as Percent Effect for COCc1noc(CN2CCCCC2CCc2cccs2)n1 (centres undefined) ?
*A* 103.5

*Q* Returns the measured Percent Effect for the input compound. Input: Cc1cnn(CCNCc2nnc(-c3ccc(F)cc3)o2)c1
*A* 123.4

*Q* For Cc1cc(NC(=O)CCN2CCn3c(nnc3C3CC3)C2)no1 , what is its reported Percent Effect?
*A* -0.2298

*Q* Look up Percent Effect for this compound: Cc1cnn(CCNCc2cc(C)no2)c1
*A* 0.9077

*Q* Which Percent Effect value is on record for O=C1CC(c2cccs2)Cc2[nH]c(=O)ccc21 (centres undefined) ?
*A* 3.972

*Q* Record request: Percent Effect value, item Cc1ccc2c(n1)N(CCN(C)C)CCN(C(=O)N1CCOCC1)C2
*A* -2.22

*Q* What does the record list as Percent Effect for CN(C)C(=O)CCC[S+]([O-])Cc1ccc(F)c(F)c1 (centres undefined) ?
*A* -13.45

*Q* Form field: reported Percent Effect of COc1ccc2c(c1)CN(C)C(=O)CCN2CC(O)C(C)(C)C (centres undefined)
*A* 100.8

*Q* Requested field: Percent Effect. Item: Cc1cccc(CN2CCN(c3ncnc4[nH]ccc34)CC2CCO)n1 (centres undefined)
*A* 6.168

*Q* Value lookup for Percent Effect; key = CCC(=O)N(CC(N)=O)Cc1cccc(Oc2ccccc2)c1
*A* 9.242

*Q* Dear colleague, I am looking for the recorded Percent Effect of the following compound: Cc1nnc2n1CCN(CCC(=O)Nc1sccc1C#N)C2
*A* 5.791

*Q* Requested field: Percent Effect. Item: CN1CC2(CCCN(Cc3ccc(Oc4ccccc4)cc3)C2)OC1=O (centres undefined)
*A* 64.08

*Q* Find the recorded Percent Effect belonging to CN1CC2(CCCN(c3cnccn3)C2)OC1=O (centres undefined) and report it.
*A* 1.527

*Q* I'd like to know its Percent Effect. The compound in question is CCN(CC)CCC(=O)N1CCc2c(nc(N(C)C)nc2N(C)C)C1
*A* -0.6304

*Q* Would you mind telling me what Percent Effect value was observed for CCC1CN(CC(=O)Nc2sccc2C#N)CCO1 (centres undefined) ?
*A* -10.74

*Q* Could you tell me which Percent Effect is on file for CN1CC2(CCCN(c3cc(N4CCCCC4)ncn3)C2)OC1=O (centres undefined) ?
*A* -3.477

*Q* Value lookup for Percent Effect; key = COc1ccc2c(c1)CN(C)C(=O)CCN2CC(O)C(F)(F)F (centres undefined)
*A* 104.6

*Q* So what's the measured Percent Effect for this one? c1csc(CCC2CCCCN2Cc2noc(C3CC3)n2)c1 (centres undefined)
*A* 94.56

*Q* Could you tell me which Percent Effect is on file for COc1ccc(/C=C/CN2CCCC3(C2)CN(C)C(=O)O3)cc1 (centres undefined) ?
*A* -36.85

*Q* Fill in: Percent Effect of COc1ccc2c(c1)CCCN(C(C)C(=O)NC(C)C)C2 (centres undefined) is ___
*A* -4.844

*Q* Fill blank: measured Percent Effect of the compound COc1ccc(-c2nnc(CNCCn3cc(C)cn3)o2)cc1 is ____.
*A* 93.96

*Q* Given the entry COCCCC(=O)N(C)c1ccc(F)c(Cl)c1 , report its measured Percent Effect.
*A* -0.2217

*Q* Using the record for CCOc1cc(CNCCCn2ccnc2)cc(Cl)c1OC , report its Percent Effect.
*A* -2.323

*Q* Reported Percent Effect for Cc1ccc(-c2nnc(C(C)NCCn3cc(C)cn3)o2)cc1 (centres undefined) : what is it?
*A* 8.064

*Q* Look up Percent Effect: Cc1cnn(CCNCc2nnc(-c3ccccc3)o2)c1
*A* 127.3

*Q* // lookup Percent Effect for CN(C)c1nc2c(c(=O)[nH]1)CCN(C(=O)c1ccc(=O)[nH]c1)C2
*A* -0.009534

---

System: Wolbachia pipientis
Assay: Anti-Wolbachia Cell-Based Screen
Format: functional
Parameters: scale not given: in the data most compounds retested in dose-response had high values
Details: 5 µM
Hit rate of the full screen: of about 48,000 compounds, about 13,000 (27%) showed an effect of 50% or more. Some of the results follow.
VALUE TYPE: Percent Effect (%)
# value in %; strip the unit string

*Q* Returns the measured Percent Effect for the input compound. Input: COCC(=O)N1Cc2nccn2CC(CN(C)Cc2cccnc2)C1 (stereo unspecified)
*A* 3.316

*Q* Give its Percent Effect value. Item: CC1CCN(C(=O)C(C)N2CCc3[nH]nc(C(F)(F)F)c3C2)CC1 (stereo unspecified)
*A* -0.1757

*Q* Which Percent Effect value is on record for Cc1cc(C)n(C2CN(CCC(=O)NCCc3ccccc3)C2)n1 ?
*A* 114.1

*Q* Can you share its Percent Effect? I mean this compound: COc1cccc(CNC(=O)C(C)N2CC(n3nc(C)cc3C)C2)c1 (stereo unspecified)
*A* -5.224

*Q* Can you look up the measured Percent Effect of COc1cccc2c1OCC(CNC(=O)CCCN1CCOCC1)C2 (stereo unspecified) for me?
*A* 2.111

*Q* For CC(C)OCCSCc1nnc(-c2cccc(F)c2)o1 , what is its reported Percent Effect?
*A* -1.35

*Q* Looking for the measured Percent Effect of Cc1cnn(C2CN(CC(=O)NCCc3ccccc3)C2)c1 , can you help?
*A* -5.59

*Q* What value of measured Percent Effect is listed for CCN(C)CC(=O)N1CCCC(c2nnc(CN3CCOCC3)n2C)C1 (stereo unspecified) ?
*A* 14.42

*Q* I am curious: what Percent Effect value has been reported for Cc1cccc(CNC[C@H]2Cn3cc(-c4ccccc4)nc3CO2)n1 ?
*A* -23.05

*Q* # get_value(readout='Percent Effect', item= COc1ccc(C(=O)N2CC[C@H](CO)[C@H](O)C2)c(C)c1 )
*A* -8.532

*Q* Given CCC1=N[C@@]2(CC[C@@H]3CN(C(=O)NCC(C)C)C[C@@H]32)C(=O)N1CC1CC1 , state its recorded Percent Effect.
*A* 11.23

*Q* Item CC(C)C(C(=O)NCC1CC1)n1cnc2cc(F)c(F)cc21 (stereo unspecified) has what recorded Percent Effect?
*A* -9.964

*Q* Percent Effect lookup needed for CN(C)C(C(=O)NCCS(=O)(=O)N(C)C)c1cccc(F)c1 (stereo unspecified) , thanks.
*A* -10.76

*Q* What value of Percent Effect has been reported for the following compound? CC(C(=O)N1CCN(c2cnccn2)CC1)n1cncn1 (stereo unspecified)
*A* -0.9189

*Q* Percent Effect for COc1ccc(C(=O)N2CC(=O)N(C3CCC3)CC(O)C2)c(OC)c1 (stereo unspecified) ?
*A* 143.6

*Q* What does the record list as Percent Effect for CN(C)CCOCC1CN(C(=O)[C@H]2CCCO2)Cc2ccnn2C1 (stereo partly specified) ?
*A* -10.91

*Q* Looking for the measured Percent Effect of CC1CN(Cc2ccccc2)CCCN1CCCS(C)(=O)=O (stereo unspecified) , can you help?
*A* -4.156

*Q* Name the reported Percent Effect value associated with the compound Cc1ncc(C(=O)Nc2cncnc2N(C)C)c(Cl)c1Cl
*A* -6.041

*Q* Form field: reported Percent Effect of CNC(=O)CN1CC[C@H]2CN(C(=O)c3ccccc3C)C[C@H]2C1.O=C(O)C(F)(F)F
*A* 117.7

*Q* Using the record for Cc1cnc(CNC(=O)[C@@]23CCO[C@@H]2CCN(c2ncccn2)C3)cn1 , report its Percent Effect.
*A* 105.8

*Q* So what's the measured Percent Effect for this one? CC(=O)c1cc2ncc(C(=O)NC3CCCC3)cc2[nH]1
*A* 115.8

*Q* Quick one: Percent Effect of CC(=O)N1CCN(C(=O)C(C)n2cncn2)CC1 (stereo unspecified) ?
*A* 5.614

*Q* Suppose we examine the compound CC(C(=O)N1CCN(c2ccccc2Cl)CC1)n1cncn1 (stereo unspecified) ; what Percent Effect value has been reported?
*A* 9.073

*Q* Could you share which Percent Effect value was measured for O=C([C@H]1CCCO1)N1Cc2nccn2CC(COc2cccnc2)C1 (stereo partly specified) ?
*A* 99.26

*Q* Request the reported Percent Effect associated with CN(Cc1nnc2n1CCC2)C(=O)c1ccc(=O)n(C)n1
*A* -6.286

*Q* Requested read-out: Percent Effect. Entry: O=C(NC1(C(=O)NC2CCCC2)CCCC1)c1ccc2[nH]ncc2c1
*A* 2.222

*Q* Entry CNC(=O)[C@@H]1C[C@@H](N)CN1Cc1ccc2cccc(OC)c2n1 has what Percent Effect?
*A* -0.1513

*Q* Requested field: Percent Effect. Item: O=C(O)C(F)(F)F.O=C(c1ccccc1F)N1C[C@H]2CCC[C@@]2(COCc2ccncc2)C1
*A* -1.474

*Q* Tell me the measured Percent Effect of CC(C(=O)N1CCOCC1)n1cncn1 (stereo unspecified) , please.
*A* 74.2

*Q* Record request: Percent Effect value, item CCc1ccc(NC(=O)CCN2CC(n3nc(C)cc3C)C2)cc1
*A* 87.75

*Q* Find the recorded Percent Effect belonging to Cc1nc(CN2CCCC(CCc3c(F)cccc3F)C2)c[nH]1 (stereo unspecified) and report it.
*A* 27.92

*Q* So what does the record say about Percent Effect for CCC(=O)NCC(=O)NCc1cc(Br)ccc1OC(F)F ?
*A* 6.284

*Q* Given the entry CC(C)N1CCC(C(=O)NC[C@H]2CCc3ccccc3O2)CC1 , report its measured Percent Effect.
*A* -3.949

*Q* Record request: Percent Effect value, item O=C(NCc1ccco1)[C@@]12CCO[C@@H]1CCN(Cc1nccs1)C2
*A* -2.827

*Q* Which Percent Effect value is on record for O=C(NC1(c2nnn(CC3CCCO3)n2)CCCC1)c1ccccc1 (stereo unspecified) ?
*A* -21.33

*Q* Can you share its Percent Effect? I mean this compound: COc1ccc(NC(C)C(=O)N2CCN(c3ncccn3)CC2)cn1 (stereo unspecified)
*A* -16.98

*Q* Could you tell me which Percent Effect is on file for COCC1CN(C(=O)c2ccccn2)Cc2nccn2C1 (stereo unspecified) ?
*A* 101.9

*Q* Percent Effect for Cc1cc(C)n(C2CN(CC(O)Cn3cccn3)C2)n1 (stereo unspecified) ?
*A* -3.488

*Q* Look up Percent Effect: CCO[C@H]1COC[C@@H]1NC(=O)c1c[nH]nc1C1CCCCC1
*A* -0.7852

*Q* Bench note: what Percent Effect did O=C(CC1CC1)N1Cc2nccn2CC(COc2cccnc2)C1 (stereo unspecified) show?
*A* 106

*Q* What value of Percent Effect has been recorded for this entry: CC(NC(=O)Nc1cnn(CC(N)=O)c1)c1ccc(Cl)s1 (stereo unspecified)
*A* 9.25

*Q* Look up Percent Effect: Cc1ccccc1N1CCN(C(=O)c2cnn(C(C)C)c2)C(C)C1 (stereo unspecified)
*A* 2.986

*Q* # get_value(readout='Percent Effect', item= CCNc1ncc(C(=O)NC2CCc3ccccc3C2)cn1 (stereo unspecified) )
*A* 2.788

*Q* Requested field: Percent Effect. Item: COCC(=O)N1Cc2nccn2CC(COc2cccnc2)C1 (stereo unspecified)
*A* 115.8

*Q* Percent Effect lookup needed for O=C(O)c1ccnc(-c2ccnc(COc3cccc(F)c3)n2)c1 , thanks.
*A* -102.4

*Q* // lookup Percent Effect for CCc1nc(CN2CCCN(C(=O)C(C)n3cncn3)CC2)cs1 (stereo unspecified)
*A* -3.687
